assay: Dose normalised AUC in monkey after po administration; details: macaca, in vivo
Each entry below carries its recorded DNAUC.
// note: answer is a bare numeric in kg·min/L

Here are 2 compounds together with their reported answers.
CC(C)(C)S(=O)(=O)C[C@@H](Cc1ccccc1)C(=O)N[C@@H](Cc1cnc[nH]1)C(=O)N[C@@H](CC1CCCCC1)[C@@H](O)[C@@H](O)C1CC1 has a reported DNAUC of 0.14

CC[C@H]1OC(=O)[C@H](C)[C@@H](O[C@H]2C[C@@](C)(OC)[C@@H](O)[C@H](C)O2)[C@H](C)[C@@H](O[C@@H]2O[C@H](C)C[C@H](N(C)C)[C@H]2O)[C@](C)(O)C[C@@H](C)CN(C)[C@H](C)[C@@H](O)[C@]1(C)O has a reported DNAUC of 17.52

Others:
O=C1CN=C(c2ccccc2Cl)c2cc([N+](=O)[O-])ccc2N1 has a reported DNAUC of 36.8
